EXPERIMENTAL TARGET: T1, human MSLN on OVCAR3 tumor cells (human, UniProt Q13421 296-598)
T1 construct: whole, on cells; also called human MSLN protein
T1 sequence (Q13421 other isoform, or with tags, fused parts or gaps): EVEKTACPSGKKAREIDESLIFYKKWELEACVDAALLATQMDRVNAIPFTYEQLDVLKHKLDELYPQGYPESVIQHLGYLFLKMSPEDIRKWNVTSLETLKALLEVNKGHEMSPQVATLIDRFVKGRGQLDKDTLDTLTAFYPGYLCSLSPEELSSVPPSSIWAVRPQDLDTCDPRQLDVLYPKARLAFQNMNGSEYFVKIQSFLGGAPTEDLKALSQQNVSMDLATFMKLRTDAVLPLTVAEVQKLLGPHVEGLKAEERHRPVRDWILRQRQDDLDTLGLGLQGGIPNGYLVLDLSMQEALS
ASSAY: FACS, OVCAR3 cells
MEASURED PARAMETER: pEC50
Quick note: pEC50 values are minus log10 of concentrations in mol/L.

>>> measured_value("F7.33.24-H12 (scFv, not shown: small tags and cut ends, also called S009-F7.33.24 humanized antibody VH2a + VL3) scFv: EVQLVQSGAEVKKPGASVKVSCKASGYTFTSYWMHWVRQAPGQGLEWMGNVNPSNAGSNYNEKFKNRVTITVDKSASTAYMELSSLRSEDTAVYYCAPHYIGSRPGFAYWGQGTLVTVSSGGGGSGGGGSGGGGSDIVMTQTPLSLSVTPGQPASISCKASQNVGTNIAWYQQKPGQSPQALIYSASYRYSGVPDRFSGSGSGTDFTLKISRVEAEDVGVYYCQQYNSYPLTFGGGTKVEIK")
9.04
>>> measured_value("F7.33.24-H3 (scFv, not shown: small tags and cut ends, also called S009-F7.33.24 humanized antibody VH1 + VL3) scFv: EVQLVQSGAEVKKPGASVKVSCKASGYTFTSYWMHWVRQAPGQRLEWMGNVNPSNGGSNYNEKFKNRVTITVDKSASTAYMELSSLRSEDTAVYYCAPHYIGSRPGFAYWGQGTLVTVSSGGGGSGGGGSGGGGSDIVMTQTPLSLSVTPGQPASISCKASQNVGTNIAWYQQKPGQSPQALIYSASYRYSGVPDRFSGSGSGTDFTLKISRVEAEDVGVYYCQQYNSYPLTFGGGTKVEIK")
8.69

# evaluate next
Value lookup for pEC50; key = F7.33.24-H10 (scFv, not shown: small tags and cut ends, also called S009-F7.33.24 humanized antibody VH2a + VL1) scFv: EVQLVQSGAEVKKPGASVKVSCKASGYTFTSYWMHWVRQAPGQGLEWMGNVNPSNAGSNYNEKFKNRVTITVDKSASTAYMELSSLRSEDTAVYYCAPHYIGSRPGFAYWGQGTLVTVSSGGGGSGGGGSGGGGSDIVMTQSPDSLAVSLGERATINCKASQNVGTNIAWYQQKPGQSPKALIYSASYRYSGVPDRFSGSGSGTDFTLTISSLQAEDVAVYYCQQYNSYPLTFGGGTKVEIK 8.52
